# Subject of test: MAP kinase-interacting serine/threonine-protein kinase 2 (Homo sapiens, UniProt Q9HBH9)
# Sequence (Q9HBH9 whole entry, looked up): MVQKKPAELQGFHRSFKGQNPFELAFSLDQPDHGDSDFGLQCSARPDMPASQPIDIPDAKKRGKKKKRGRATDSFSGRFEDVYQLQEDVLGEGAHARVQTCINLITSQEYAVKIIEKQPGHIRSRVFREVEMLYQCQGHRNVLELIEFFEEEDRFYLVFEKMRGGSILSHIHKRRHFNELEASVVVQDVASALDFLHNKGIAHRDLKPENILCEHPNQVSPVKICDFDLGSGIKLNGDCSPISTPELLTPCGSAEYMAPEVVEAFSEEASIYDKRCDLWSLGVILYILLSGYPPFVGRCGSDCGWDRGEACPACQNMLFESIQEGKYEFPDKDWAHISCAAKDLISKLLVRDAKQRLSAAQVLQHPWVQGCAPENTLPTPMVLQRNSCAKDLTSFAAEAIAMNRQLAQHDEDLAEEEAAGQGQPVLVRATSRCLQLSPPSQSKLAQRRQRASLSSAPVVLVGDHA
# Test details: Inhibition of MNK2 (unknown origin) at 1 uM using S3 as substrate measured after 60 mins by HTRF assay relative to control
The following ranges of inhibition define the classes used here: low group (below 8%), middle group (8% to below 20%), high group (20% or more)

A selection of reference data follows.
[
  {
    "Compound structure": "COc1cc(O)c(C(N)=O)c2oc(C(=O)NC3CCN(Cc4c(Cl)cccc4Cl)CC3)c(C)c12",
    "Group": "low group"
  },
  {
    "Compound structure": "COc1cc(O)c(C(N)=O)c2oc(C(=O)NC3CCN(Cc4cc(Cl)ncn4)CC3)c(C)c12",
    "Group": "low group"
  },
  {
    "Compound structure": "COc1cc(O)c(C(N)=O)c2occ(C)c12",
    "Group": "high group"
  },
  {
    "Compound structure": "COc1cc(O)c(C(N)=O)c2oc(C(=O)N3CCN(c4ccc(F)cc4)CC3)c(C)c12",
    "Group": "low group"
  },
  {
    "Compound structure": "CNC(=O)c1oc2c(C(N)=O)c(O)cc(OC)c2c1C",
    "Group": "high group"
  },
  {
    "Compound structure": "COc1cc(O)c(C(N)=O)c2oc(C(=O)NC3CCCC3)c(C)c12",
    "Group": "low group"
  },
  {
    "Compound structure": "COc1cc(O)c(C(N)=O)c2oc(C(=O)N(C)C)c(C)c12",
    "Group": "high group"
  },
  {
    "Compound structure": "COc1cc(O)c(C(N)=O)c2oc(C(=O)NC3CCN(Cc4ccc(Cl)cc4)CC3)c(C)c12",
    "Group": "high group"
  },
  {
    "Compound structure": "COc1cc(O)c(C(N)=O)c2oc(C(=O)N3CCN(c4cccc(C(F)(F)F)c4)CC3)c(C)c12",
    "Group": "high group"
  },
  {
    "Compound structure": "COc1cc(O)c(C(N)=O)c2oc(C(=O)NCC3CCN(C(=O)c4ccc(F)cc4)CC3)c(C)c12",
    "Group": "middle group"
  }
]

# input Record COc1ccc2c(C)c(C(=O)NC3CCN(Cc4cccc(C(F)(F)F)c4)CC3)oc2c1 — which class?
# output low group

# input # bin lookup: classify Cc1c(C(=O)NC2CCN(Cc3cccc(C(F)(F)F)c3)CC2)oc2cc(O)ccc12 by its inhibition
# output low group

# input Category lookup for the molecule COc1cc(O)c(C(N)=O)c2oc(C(=O)NCc3cccc(F)c3)c(C)c12
# output middle group

# input Could you tell me which band Cc1c(C(=O)NC2CCN(Cc3cccc(C(F)(F)F)c3)CC2)oc2c(C(N)=O)c(O)cc(O)c12 belongs to?
# output low group

# input Where would COc1cc(O)c(C(N)=O)c2oc(C(=O)Nc3ccc(F)c(C(F)(F)F)c3)c(C)c12 land among the classes by reported inhibition?
# output middle group

# input Pick a category. Item: COc1cc(O)c(C(N)=O)c2oc(C(=O)N3CCCCC3)c(C)c12
# output middle group

# input Returns: class label. Input: COc1cc(O)c(C(N)=O)c2oc(C(=O)NC3CCN(Cc4ccc(C)cc4)CC3)c(C)c12
# output high group

# input // return the class label for COc1cc(O)c(C(N)=O)c2oc(C(=O)N(C)Cc3ccccc3)c(C)c12
# output low group

# input Category lookup for the molecule CCN1CCN(C(=O)c2oc3c(C(N)=O)c(O)cc(OC)c3c2C)CC1
# output high group

# input Hey, which category is COc1cc(O)c(C(N)=O)c2oc(C(=O)NC3CCN(Cc4ccc(Cl)cc4Cl)CC3)c(C)c12 in, do you know?
# output low group

Sourced from ChEMBL document CHEMBL4229533
